# measured_target: canaux calciques de type L, site vérapamil (Rattus norvegicus, UniProt P22002)
# Sequence (P22002 whole entry): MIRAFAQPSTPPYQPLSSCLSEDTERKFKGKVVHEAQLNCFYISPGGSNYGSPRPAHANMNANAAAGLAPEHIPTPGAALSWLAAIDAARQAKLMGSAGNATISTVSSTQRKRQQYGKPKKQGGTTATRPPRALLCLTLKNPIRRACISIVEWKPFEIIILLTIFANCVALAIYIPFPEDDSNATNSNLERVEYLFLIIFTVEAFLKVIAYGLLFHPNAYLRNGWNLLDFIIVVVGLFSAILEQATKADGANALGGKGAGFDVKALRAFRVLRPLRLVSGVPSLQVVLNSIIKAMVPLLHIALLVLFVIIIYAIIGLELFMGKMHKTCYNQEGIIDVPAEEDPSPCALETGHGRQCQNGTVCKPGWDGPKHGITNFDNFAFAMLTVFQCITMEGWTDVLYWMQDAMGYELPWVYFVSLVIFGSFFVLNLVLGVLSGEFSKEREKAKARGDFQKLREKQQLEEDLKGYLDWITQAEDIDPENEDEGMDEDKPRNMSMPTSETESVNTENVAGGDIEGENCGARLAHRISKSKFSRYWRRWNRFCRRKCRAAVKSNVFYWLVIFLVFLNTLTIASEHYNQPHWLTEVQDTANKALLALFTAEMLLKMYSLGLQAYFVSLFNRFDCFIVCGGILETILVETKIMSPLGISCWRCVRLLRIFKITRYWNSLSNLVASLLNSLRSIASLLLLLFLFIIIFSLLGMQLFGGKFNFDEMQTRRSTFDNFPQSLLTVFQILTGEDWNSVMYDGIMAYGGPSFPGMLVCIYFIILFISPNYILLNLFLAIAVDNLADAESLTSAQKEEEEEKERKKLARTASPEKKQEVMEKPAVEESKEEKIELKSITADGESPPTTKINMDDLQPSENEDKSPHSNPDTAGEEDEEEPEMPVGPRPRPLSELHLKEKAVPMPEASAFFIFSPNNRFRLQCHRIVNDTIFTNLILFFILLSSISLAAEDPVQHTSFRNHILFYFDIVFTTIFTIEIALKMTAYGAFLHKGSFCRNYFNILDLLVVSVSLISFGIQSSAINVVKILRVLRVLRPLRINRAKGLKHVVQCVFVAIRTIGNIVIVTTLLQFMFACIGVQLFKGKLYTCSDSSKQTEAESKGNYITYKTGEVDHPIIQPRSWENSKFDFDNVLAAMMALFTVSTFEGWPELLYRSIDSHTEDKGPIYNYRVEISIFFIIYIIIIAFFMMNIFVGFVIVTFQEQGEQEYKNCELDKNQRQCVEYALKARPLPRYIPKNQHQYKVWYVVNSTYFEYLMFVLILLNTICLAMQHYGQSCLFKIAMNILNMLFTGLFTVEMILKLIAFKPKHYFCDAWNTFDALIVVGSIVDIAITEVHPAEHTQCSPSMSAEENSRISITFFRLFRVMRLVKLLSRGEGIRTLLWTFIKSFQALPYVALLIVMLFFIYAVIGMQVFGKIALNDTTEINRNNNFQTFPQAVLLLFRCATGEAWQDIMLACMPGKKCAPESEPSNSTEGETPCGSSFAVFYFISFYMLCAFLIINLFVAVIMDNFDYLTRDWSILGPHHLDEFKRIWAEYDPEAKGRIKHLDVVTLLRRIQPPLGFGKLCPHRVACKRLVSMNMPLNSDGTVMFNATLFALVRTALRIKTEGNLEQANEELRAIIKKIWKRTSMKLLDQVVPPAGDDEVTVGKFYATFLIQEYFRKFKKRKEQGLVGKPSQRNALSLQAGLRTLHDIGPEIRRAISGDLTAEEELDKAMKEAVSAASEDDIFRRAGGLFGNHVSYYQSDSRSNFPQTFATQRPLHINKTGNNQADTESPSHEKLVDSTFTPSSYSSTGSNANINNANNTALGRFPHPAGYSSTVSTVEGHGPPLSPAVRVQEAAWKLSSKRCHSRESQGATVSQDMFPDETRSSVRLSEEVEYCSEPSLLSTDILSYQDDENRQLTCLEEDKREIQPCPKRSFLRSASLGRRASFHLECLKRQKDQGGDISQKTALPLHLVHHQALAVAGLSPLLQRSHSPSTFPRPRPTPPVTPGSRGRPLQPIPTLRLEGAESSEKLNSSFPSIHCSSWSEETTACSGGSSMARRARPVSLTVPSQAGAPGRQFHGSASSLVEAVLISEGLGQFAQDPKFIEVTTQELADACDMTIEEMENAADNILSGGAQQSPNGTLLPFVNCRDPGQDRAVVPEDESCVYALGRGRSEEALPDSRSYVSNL
# test_details: Calcium channel test: competitive inhibition of [3H](-) D 888 binding, rat cerebral cortex homogenates
# conditions_used: ligand [^3H](-) D 888 0.5 nM; non-specific D 600 (10 µM); 60 min. /22°C; measured in duplicate
parameter_measured: pIC50
Friendly reminder that pIC50 comes from taking -log10 of the concentration in mol/L.

Reported pIC50 (canaux calciques de type L, site vérapamil (Rattus norvegicus, UniProt P22002)) for entry CCN(CCCc1ccccc1)CCCc1ccccc1 is 6.16
